# Tested on: M14 melanoma
# assay procedure: NCI tumour cell line growth inhibition, 48 h
measurement type: TGI (µM)
A number alone suffices; assume µM.

# count of solved cases: 2
{"compound": "C#CCN(N=O)C(=O)NCCCCC(NC(=O)OCc1ccccc1)C(=O)OCc1ccccc1 (configuration not stated)", "TGI (µM)": 68}
{"compound": "O=C(Nc1ccc2ncnc(Nc3ccc(Oc4cccc(F)c4)c(Cl)c3)c2c1)c1ccc(CN2CCOCC2)cc1", "TGI (µM)": 4.68}

Now consider the entry below.
Measured TGI of N/C(=N\NC(=O)c1nc2ccccc2s1)c1ccccn1 : 23.6

====

Entries annotated with measured TGI
# Tested on: MALME-3M melanoma
# assay procedure: NCI tumour cell line growth inhibition, 48 h

{"record smiles": "O=C(/C=C/c1ccc2c(c1)OCO2)NCCc1ccco1", "tgt": "MALME-3M melanoma", "TGI": "> 100 µM"}

Measured TGI of CCN(CC)CCCOc1ccc2ncnc(Nc3ccc(Oc4cccc(C(F)(F)F)c4)c(Cl)c3)c2c1 : 3.04 µM

Measured TGI of N#C/C(=C/n1c(=S)[nH]c2ccccc21)C(N)=O : > 100 µM

====

# Tested on: HT29 colon
# assay procedure: NCI tumour cell line growth inhibition, 48 h; in the data active = GI50 below about 0.43 µM; inactive = the rest
Bench note: report the call from class 1 (active), class 0 (inactive)

# count of solved cases: 5
{"compound": "COc1cccc(Sc2ccc([N+](=O)[O-])c3no[n+]([O-])c23)c1", "cat": "class 0"}
{"compound": "COc1cccc2c1C(=O)c1c(O)c3c(c(O)c1C2=O)C[C@@](O)(C(=O)CN1CCOCC1)C[C@@H]3OC1CC(N)C(O)C(C)O1 (stereo partly specified)", "cat": "class 0"}
{"compound": "Oc1[nH]c(N=C2N=c3ccccc3=N2)c2ccccc12", "cat": "class 0"}
{"compound": "c1cc(CN2CCCNCCNCCCNCC2)ccc1CN1CCCNCCNCCCNCC1", "cat": "class 0"}
{"compound": "Cc1ccc(-c2c(C#N)[n+](=O)c3cc(F)c(F)cc3n2[O-])cc1", "cat": "class 0"}

Inquiry: For CCN1C(=O)N(CC)C2C1NN=c1s/c(=C\c3cccs3)c(=O)n12 (stereo unspecified) , which call appears in the assay record?
Reply text: class 1

Inquiry: For Nc1ncnc2c1c(-c1ccc(Oc3ccccc3)cc1)nn2C[C@H]1SSC[C@@H]1O , which call appears in the assay record?
Reply text: class 1

Inquiry: For Clc1ccccc1[C@@H]1C[C@@H]2Cc3cc(Br)c4ccccc4c3N1O2 , which call appears in the assay record?
Reply text: class 0

Inquiry: For c1ccc2cc(Cn3cc[n+](Cc4ccc5ccccc5c4)c3)ccc2c1 , which call appears in the assay record?
Reply text: class 0

Inquiry: For COc1cc(OC)c(/C=C/C(=O)c2ccc(Nc3ncnc4ccccc34)cc2)c(OC)c1 , which call appears in the assay record?
Reply text: class 1

Inquiry: For CCC#CC[C@H](O)C/C=C1/C(=O)C=C[C@@H]1C/C=C\CCCC(=O)OC , which call appears in the assay record?
Reply text: class 0

====

# System: NCI-H226 lung
# assay procedure: NCI tumour cell line growth inhibition, 48 h
measurement type: GI50

# count of solved cases: 4
{"record smiles": "C=C(C)[C@@H]1C/C=C(/CO)CC[C@H]2O[C@]2(C)CC/C=C(\\C)CC1", "GI50": "19.7 µM"}
{"record smiles": "c1cc(CN2CCCNCCNCCCNCC2)ccc1CN1CCCNCCNCCCNCC1", "GI50": "> 100 µM"}
{"record smiles": "O=C1NCN(c2ccccc2)C12CCN(CCCC(c1ccc(F)cc1)c1ccc(F)cc1)CC2", "GI50": "7.36 µM"}
{"record smiles": "COc1ccc(OC)c(NC(=O)c2cccc(NC3=C(Cl)C(=O)N(Cc4ccccc4)C3=O)c2)c1", "GI50": "> 67.3 µM"}

Measured GI50 of CN(C)C[C@H]1CCn2c(c(C3=C(c4cn(C)c5ccccc45)C(=O)NC3=O)c3ccccc32)C1 : 5.13 µM

====

Entries annotated with measured TGI
# System: K-562 leukemia
# assay procedure: NCI tumour cell line growth inhibition, 48 h

# count of solved cases: 5
{"molecule": "CC(=O)OC12CC(C(F)(F)F)(C(F)(F)F)OC1(OC(C)=O)CC(C(F)(F)F)(C(F)(F)F)O2 (stereo unspecified)", "result": "> 100 µM"}
{"molecule": "Oc1[nH]c(N=C2N=c3ccccc3=N2)c2ccccc12", "result": "> 100 µM"}
{"molecule": "O=c1/c(=C/c2c(O)ccc3ccccc23)sc2nc3ccccc3n12", "result": "> 100 µM"}
{"molecule": "C=CCNc1nc(O)c(/C=C2\\C=Nc3ncccc32)s1", "result": "> 100 µM"}
{"molecule": "Cc1ccc2[nH]c3c(c2c1)N=c1ccccc1=NO3", "result": "> 100 µM"}

Measured TGI of CCN(CCCl)CCCCCNc1c2ccccc2nc2ccc(OC)cc12 : 1.06 µM

Measured TGI of CC(C)(C)c1ccc(O)c(C(c2ccc([N+](=O)[O-])cc2)c2cc(C(C)(C)C)ccc2O)c1 : 7.35 µM

Measured TGI of c1cc(CN2CCCNCCNCCCNCC2)ccc1CN1CCCNCCNCCCNCC1 : > 100 µM

Measured TGI of COc1ccc(N2C(=O)/C(=C/C(Cl)=C/c3ccc([N+](=O)[O-])cc3)SC2=S)cc1 : > 100 µM

Measured TGI of O=C(NC12CC3CC(CC(C3)C1)C2)C(=O)c1c[nH]c2ccc(Br)cc12 : 47.2 µM

====

# System: SK-OV-3 ovarian
# assay procedure: NCI tumour cell line growth inhibition, 48 h
Entries annotated with measured TGI
A number alone suffices; assume µM.

{"compound": "CC(C)(CN1CCOCC1)C(=O)/C=C/c1ccc(/C=C/C(=O)C(C)(C)CN2CCOCC2)cc1", "tgt": "SK-OV-3 ovarian", "value unit": "µM", "TGI": 39.8}
{"compound": "CC(=Nc1ccccc1)C1=C(O)C(Cc2cccc(F)c2)NC1=O (stereo not given)", "tgt": "SK-OV-3 ovarian", "value unit": "µM", "TGI": 1.33}
{"compound": "COc1cc(NS(C)(=O)=O)ccc1NCc1cnc2ccc3[nH]cccc3c12", "tgt": "SK-OV-3 ovarian", "value unit": "µM", "TGI": 48}
{"compound": "COC12C=C/C(=C(/C(=O)OCCSc3ccnn3C)C(=O)CCCCCCCCC3(OC)C=C/C(=C(/C(=O)OCCSc4ccnn4C)C(=O)CCCCCCCC1)O3)O2", "tgt": "SK-OV-3 ovarian", "value unit": "µM", "TGI": 24.9}
{"compound": "O=c1cc(-c2ccccc2)oc2ccc(OC/C(=N/O)c3ccc(F)cc3)cc12", "tgt": "SK-OV-3 ovarian", "value unit": "µM", "TGI": 30.7}

Measured TGI of O=C1NCN(c2ccccc2)C12CCN(CCCC(c1ccc(F)cc1)c1ccc(F)cc1)CC2 : 14.7

Measured TGI of Cc1ccc(NC(=O)C(=O)C(C(=O)c2ccc3ccccc3c2)C2OC(=O)c3ccccc32)c(C)c1 (stereo not given) : 60.4

Measured TGI of C=C(C)[C@@H]1CC[C@]2(COCCCNCCCN)CC[C@]3(C)[C@H](CC[C@@H]4[C@@]5(C)CC[C@H](OCCCN)C(C)(C)[C@@H]5CC[C@]43C)[C@@H]12 : 4.28

Measured TGI of COc1ccc(C(C#N)=C2C=CC(=NO)C=C2)cc1 : 67.5

Measured TGI of O=C(NNS(=O)(=O)c1ccc(Br)cc1)c1ccc(Cl)cc1NC(=O)C12CC3CC(CC(C3)C1)C2 : 30.3

====

# System: T-47D breast
# assay procedure: NCI tumour cell line growth inhibition, 48 h; in the data active = GI50 below about 0.43 µM; inactive = the rest
Bench note: report the call from active, inactive

# count of solved cases: 4
{"molecule": "O=C1CSC(c2ccc(-c3nc4ccccc4[nH]3)cc2)=N1", "tgt": "T-47D breast", "cat": "inactive"}
{"molecule": "COc1cc(OC)cc(-c2nc3sccn3c2/C=N/N=C(N)N)c1", "tgt": "T-47D breast", "cat": "inactive"}
{"molecule": "CC(=Nc1ccccc1)C1=C(O)C(Cc2cccc(F)c2)NC1=O (configuration not stated)", "tgt": "T-47D breast", "cat": "active"}
{"molecule": "c1cc(CN2CCCNCCNCCCNCC2)ccc1CN1CCCNCCNCCCNCC1", "tgt": "T-47D breast", "cat": "inactive"}

Inquiry: For C=C(C)[C@@H]1CC[C@]2(COCCCNCCCN)CC[C@]3(C)[C@H](CC[C@@H]4[C@@]5(C)CC[C@H](OCCCN)C(C)(C)[C@@H]5CC[C@]43C)[C@@H]12 , which call appears in the assay record?
Reply text: inactive

Inquiry: For Cc1ccc(-c2c(C#N)[n+](=O)c3cc(F)c(F)cc3n2[O-])cc1 , which call appears in the assay record?
Reply text: inactive

Inquiry: For COc1cc2c3c(n(CCCCNC(=O)OC(C)(C)C)c(=O)c2cc1OC)-c1cc2c(cc1C3=O)OCO2 , which call appears in the assay record?
Reply text: inactive

Inquiry: For CCCCC[C@H]1CC=C2C(=O)C=C[C@@H]2CC=CCCCC(=O)O[C@@H](CCCCC)CC=C2C(=O)C=C[C@@H]2CC=CCCCC(=O)O[C@@H](CCCCC)CC=C2C(=O)C=C[C@@H]2CC=CCCCC(=O)O1 , which call appears in the assay record?
Reply text: active

Inquiry: For C=C1C(=O)O[C@H]2[C@H]1CC/C(Cn1cc(Cc3c[nH]c4ccccc34)nn1)=C\CC[C@@]1(C)O[C@@H]21 , which call appears in the assay record?
Reply text: inactive

Inquiry: For CN(C)C[C@H]1CCn2c(c(C3=C(c4cn(C)c5ccccc45)C(=O)NC3=O)c3ccccc32)C1 , which call appears in the assay record?
Reply text: inactive

Inquiry: For COc1cccc(OC(=O)c2ccc(C(F)(F)F)nc2Nc2c(C)cccc2Cl)c1 , which call appears in the assay record?
Reply text: inactive

Inquiry: For COc1ccc(OC)c(NC(=O)c2cccc(NC3=C(Cl)C(=O)N(Cc4ccccc4)C3=O)c2)c1 , which call appears in the assay record?
Reply text: inactive
